// data source = patent US10647775B2

Parameter: ELISA ratio (target to background). Scope: all listed entries.
# target_or_test_system: PD-L1-Fc (human) (UniProt Q9NZQ7)
# Sequence (Q9NZQ7 19-239 limits assumed): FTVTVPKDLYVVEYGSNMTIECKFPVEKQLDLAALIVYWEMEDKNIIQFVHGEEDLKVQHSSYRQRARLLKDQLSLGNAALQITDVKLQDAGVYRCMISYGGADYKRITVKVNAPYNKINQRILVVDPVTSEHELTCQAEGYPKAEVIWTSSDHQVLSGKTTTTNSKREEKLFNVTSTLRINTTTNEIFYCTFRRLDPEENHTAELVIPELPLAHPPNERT
# protocol_summary: phage ELISA, target-Fc against non-specific control (IgG1-Fc)
measurement_type: ELISA ratio (target to background)

| binder | value_reported |
| --- | --- |
| DBDpp of SEQ ID NO: 42 (designed binder) MGSWYEFESRLDAIHERLHALGGSEAELAAFEKEIAAFESELQAYKGKGNPEVENLRGDAAFIRHFLQAYRHN | 4.88 |
| DBDpp of SEQ ID NO: 41 (designed binder) MGSWFEFQDRLTAINERLSALGGSEAELAAFEKEIAAFESELQAYKGKGNPEVETLRSDAAFIRRFLQAYRHN | 6.01 |
| DBDpp of SEQ ID NO: 38 (designed binder) MGSWTEFQSRLDAIHSRLRALGGSEAELAAFEKEIAAFESELQAYKGKGNPEVELLRDDAAFIRHFLQAYRHN | 8.68 |
| DBDpp of SEQ ID NO: 44 (designed binder) MGSWFEFENRLHAIVHRLGALGGSEAELAAFEKEIAAFESELQAYKGKGNPEVETLRADAAFIRHYLQAYRHN | 2.76 |
| DBDpp of SEQ ID NO: 43 (designed binder) MGSWYEFNHRLDAISKRLNALGGSEAELAAFEKEIAAFESELQAYKGKGNPEVEELRGDAAFIRHFLQAYRHN | 2.98 |
| DBDpp of SEQ ID NO: 39 (designed binder) MGSWQEFDDRLNAIKARLQALGGSEAELAAFEKEIAAFESELQAYKGKGNPEVEDLRDDAAFIRRFLQAYRHN | 7.41 |
| DBDpp of SEQ ID NO: 40 (designed binder) MGSWYEFQNRLHAIHERLNALGGSEAELAAFEKEIAAFESELQAYKGKGNPEVELLRDDAAFIRHFLQAYRHN | 6.34 |
